# hERG current change (%, negative = inhibition) at 1uM annotations
- SYSTEM_UNDER_TEST: human ether-à-go-go-related gene (hERG) potassium channel (human, UniProt Q12809)
- Sequence (Q12809 whole entry, looked up): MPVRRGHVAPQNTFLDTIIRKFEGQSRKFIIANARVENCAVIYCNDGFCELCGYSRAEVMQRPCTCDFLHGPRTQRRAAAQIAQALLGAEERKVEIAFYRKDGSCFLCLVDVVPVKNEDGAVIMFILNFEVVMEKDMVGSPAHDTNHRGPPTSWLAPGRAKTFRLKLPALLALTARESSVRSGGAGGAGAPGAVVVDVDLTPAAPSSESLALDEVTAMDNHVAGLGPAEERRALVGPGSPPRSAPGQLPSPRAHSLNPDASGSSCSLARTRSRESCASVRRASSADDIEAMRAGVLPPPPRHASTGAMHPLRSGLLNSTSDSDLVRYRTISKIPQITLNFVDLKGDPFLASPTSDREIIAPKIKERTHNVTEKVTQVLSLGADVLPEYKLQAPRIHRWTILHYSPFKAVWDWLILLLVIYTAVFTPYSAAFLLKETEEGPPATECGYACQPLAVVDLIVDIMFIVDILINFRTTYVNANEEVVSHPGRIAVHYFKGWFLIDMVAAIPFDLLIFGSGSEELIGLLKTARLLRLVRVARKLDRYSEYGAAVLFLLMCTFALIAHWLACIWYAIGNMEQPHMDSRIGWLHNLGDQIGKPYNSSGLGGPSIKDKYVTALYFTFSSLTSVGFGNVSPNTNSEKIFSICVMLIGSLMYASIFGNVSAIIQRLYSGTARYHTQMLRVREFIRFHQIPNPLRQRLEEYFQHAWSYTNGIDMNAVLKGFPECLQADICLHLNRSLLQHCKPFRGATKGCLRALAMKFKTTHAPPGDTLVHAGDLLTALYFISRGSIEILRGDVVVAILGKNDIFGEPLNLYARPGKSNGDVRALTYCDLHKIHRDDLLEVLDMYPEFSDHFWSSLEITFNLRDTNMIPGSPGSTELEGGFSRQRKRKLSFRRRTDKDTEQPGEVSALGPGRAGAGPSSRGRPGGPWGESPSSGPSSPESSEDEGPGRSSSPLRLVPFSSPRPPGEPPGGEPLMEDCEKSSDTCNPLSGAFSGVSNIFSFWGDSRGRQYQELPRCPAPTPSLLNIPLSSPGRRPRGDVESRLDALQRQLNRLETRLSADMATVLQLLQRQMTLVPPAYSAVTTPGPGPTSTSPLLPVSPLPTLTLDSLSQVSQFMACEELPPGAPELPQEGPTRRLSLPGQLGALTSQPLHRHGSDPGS
- ASSAY_PROTOCOL: primary screen, population patch clamp on CHO cells stably expressing hERG; higher = less effect of the substance
Out of some 310,000 compounds screened, about 2,200 (0.71%) showed an effect of 50% or more. Effects have a minus sign here. What follows is part of a selection rich in strong results, with near analogues and random picks from the rest.

Some solved cases for reference:
[[record]]
molecule = "COc1ccc(/C=C2\\N=C3CCCCCN3C2=O)cc1OC"
measured = "14.8%"

[[record]]
molecule = "Cc1ccc(/C=N/Nc2nnc(Cl)c3ccccc23)cc1"
measured = "-1.46%"

[[record]]
molecule = "Clc1ccc(CSc2nnc(-c3cccnc3)n2Cc2ccco2)c(Cl)c1"
measured = "-42.3%"

[[record]]
molecule = "CCC(=O)OCC(=O)Nc1ccc([N+](=O)[O-])cc1OC"
measured = "9.97%"

[[record]]
molecule = "CCn1cc(C2=NC(C)CO2)c2ccccc21 (stereo not drawn)"
measured = "-0.637%"

[[record]]
molecule = "CCN1C(=O)C2(C(C(=O)c3ccc(C)o3)=C(O)C(=O)N2CCCN(C)C)c2ccccc21 (stereo not drawn)"
measured = "14%"

[[record]]
molecule = "COc1ccc(-c2cc(C)no2)cc1S(=O)(=O)N(C)c1ccc(C)cc1"
measured = "4.37%"

[[record]]
molecule = "COc1ccccc1CN1CCC(CNS(=O)(=O)c2cc(-c3cc(C)no3)ccc2OC)CC1"
measured = "-33.2%"


Ask: Give a short answer stating reported hERG current change (%, negative = inhibition) at 1uM for `CCN(C1CCCCC1)S(=O)(=O)CCNC(=O)c1ccccc1` .
Reply: 2.25%

Ask: Give a short answer stating reported hERG current change (%, negative = inhibition) at 1uM for `Clc1ccccc1CSc1nnc(-c2cccnc2)n1Cc1ccco1` .
Reply: -14.2%

Ask: Give a short answer stating reported hERG current change (%, negative = inhibition) at 1uM for `COc1ccc(-c2cc(C)no2)cc1S(=O)(=O)N(C)c1ccc(C)c(C)c1` .
Reply: 9.2%

Ask: Give a short answer stating reported hERG current change (%, negative = inhibition) at 1uM for `O=C(c1nc2ccccn2c1CN1CCN(c2ccccc2O)CC1)N1CCCC1` .
Reply: 26%

* * *

# hERG current change (%, negative = inhibition) at 1uM annotations
- SYSTEM_UNDER_TEST: human ether-à-go-go-related gene (hERG) potassium channel (human)
- ASSAY_PROTOCOL: primary screen, population patch clamp on CHO cells stably expressing hERG; higher = less effect of the substance
The campaign covered roughly 310,000 compounds. About 2,200 (0.71%) showed an effect of 50% or more. The effect is printed as a negative number. This excerpt belongs to a sample that is enriched for strong results.
Provide the reading as a plain figure in %.

Some solved cases for reference:
[[record]]
compound = "CCOc1ccccc1NC(=O)C(NCC1CCCCC1)c1ccccc1 (stereo not drawn)"
measured = 8.03

[[record]]
compound = "CCOC(=O)CC1C(=O)NCCN1S(=O)(=O)c1ccc(Br)cc1 (stereo not drawn)"
measured = 6.26


Now consider a different compound.
Ask: Give a short answer stating reported hERG current change (%, negative = inhibition) at 1uM for CCCN(C(=O)c1ccc(N(C)S(=O)(=O)c2ccc(C)cc2)cc1)C1CCS(=O)(=O)C1 (stereo not drawn) .
Reply: 14.8

* * *

# hERG current change (%, negative = inhibition) at 1uM annotations
- SYSTEM_UNDER_TEST: human ether-à-go-go-related gene (hERG) potassium channel (human, UniProt Q12809)
- ASSAY_PROTOCOL: primary screen, population patch clamp on CHO cells stably expressing hERG; higher = less effect of the substance
The campaign covered roughly 310,000 compounds. About 2,200 (0.71%) showed an effect of 50% or more. The effect is printed as a negative number. Shown is part of a subset that was picked to be rich in strong results.
Provide the reading as a plain figure in %.

Some solved cases for reference:
[[record]]
compound = "CC1C(=O)CC(c2ccc([N+](=O)[O-])cc2)NC1c1ccc([N+](=O)[O-])cc1.Cl (centres unmarked)"
measured = -51

[[record]]
compound = "Cc1cc2oc(C(=O)N(Cc3ccccc3)c3ccccn3)cc(=O)c2cc1Cl"
measured = 10.6


Ask: Give a short answer stating reported hERG current change (%, negative = inhibition) at 1uM for CC1C(=O)C(C)C(c2ccc([N+](=O)[O-])cc2)NC1c1ccc([N+](=O)[O-])cc1 (centres unmarked) .
Reply: -4.32

Ask: Give a short answer stating reported hERG current change (%, negative = inhibition) at 1uM for CCC1C(=O)CC(c2ccccc2)NC1c1ccccc1 (centres unmarked) .
Reply: 5.67

Ask: Give a short answer stating reported hERG current change (%, negative = inhibition) at 1uM for Cc1ccc(C2CCN(C(=O)Nc3ccccc3)C2)cc1 (centres unmarked) .
Reply: 11.5

Ask: Give a short answer stating reported hERG current change (%, negative = inhibition) at 1uM for CC1C(=O)CC(c2ccccc2)NC1c1ccccc1 (centres unmarked) .
Reply: 3.38

Ask: Give a short answer stating reported hERG current change (%, negative = inhibition) at 1uM for `C/C(=N/N1CCN(c2ccccc2)CC1)c1cccc([N+](=O)[O-])c1` .
Reply: 8.81

Ask: Give a short answer stating reported hERG current change (%, negative = inhibition) at 1uM for `Cn1c(SCCCC(=O)c2ccccc2)nnc1-c1ccncc1` .
Reply: -24.9

* * *

# hERG current change (%, negative = inhibition) at 1uM annotations
- SYSTEM_UNDER_TEST: human ether-à-go-go-related gene (hERG) potassium channel (human, UniProt Q12809)
- ASSAY_PROTOCOL: primary screen, population patch clamp on CHO cells stably expressing hERG; higher = less effect of the substance
Screen size: about 310,000 compounds; about 2,200 (0.71%) showed an effect of 50% or more. The effect is printed as a negative number. The entries come from a sample that favours strong results as a whole.
Provide the reading as a plain figure in %.

[[record]]
compound = "O=[N+]([O-])c1ccc(NC(=S)N2CCN(c3ccc(F)cc3)CC2)cc1"
system_under_test = "human ether-à-go-go-related gene (hERG) potassium channel (human, UniProt Q12809)"
measured = 13


Ask: # assay system human ether-à-go-go-related gene (hERG) potassium channel (human, UniProt Q12809): give hERG current change (%, negative = inhibition) at 1uM of `N#Cc1ccc(N2CCCNCC2)nc1`
Reply: -90.9

Ask: # assay system human ether-à-go-go-related gene (hERG) potassium channel (human, UniProt Q12809): give hERG current change (%, negative = inhibition) at 1uM of CC(C)(C)c1ccc(-n2ncc3c2CCCC3NC(=O)c2csnn2)cc1 (stereo not drawn)
Reply: 9.11

* * *

- SYSTEM_UNDER_TEST: human ether-à-go-go-related gene (hERG) potassium channel (human, UniProt Q12809)
- ASSAY_PROTOCOL: primary screen, population patch clamp on CHO cells stably expressing hERG; higher = less effect of the substance
- Excerpt: Briefly, Chinese hamster ovary (CHO) cells stably expressing the hERG channel were dislodged from tissue culture flasks and dispensed into PPC plates. […] Small molecule effects on hERG current density were quantified by […].
Hit rate of the full screen: of about 310,000 compounds, about 2,200 (0.71%) showed an effect of 50% or more. The effect is printed as a negative number. The entries come from a sample that favours strong results as a whole.
Where hERG current change (%, negative = inhibition) at 1uM equals or exceeds -20%, the correct label is T; where it does not, the label is F.

Recorded results for 5 molecules are shown here.
[[record]]
molecule = "CSc1ccc(NC(=O)NCCCN2CCC(Cc3ccccc3)CC2)cc1"
system_under_test = "human ether-à-go-go-related gene (hERG) potassium channel (human, UniProt Q12809)"
group_label = "F"

[[record]]
molecule = "CC(C)CCN1CCN(Cc2cccn2-c2nccs2)CC1CCO (stereo not shown)"
system_under_test = "human ether-à-go-go-related gene (hERG) potassium channel (human, UniProt Q12809)"
group_label = "T"

[[record]]
molecule = "CC(C)=CCN1CCN(Cc2cccn2-c2nccs2)CC1CCO (stereo not shown)"
system_under_test = "human ether-à-go-go-related gene (hERG) potassium channel (human, UniProt Q12809)"
group_label = "T"

[[record]]
molecule = "O=C(NCCCN1CCOCC1)c1onc(CSc2ccccc2)c1C(=O)NCCCN1CCOCC1"
system_under_test = "human ether-à-go-go-related gene (hERG) potassium channel (human, UniProt Q12809)"
group_label = "T"

[[record]]
molecule = "CCOc1ccc(C(=O)N2CCCCCC2)cc1"
system_under_test = "human ether-à-go-go-related gene (hERG) potassium channel (human, UniProt Q12809)"
group_label = "T"


Ask: Please indicate if the recorded hERG current change (%, negative = inhibition) at 1uM for `Cc1sc2nc(CSc3ccccc3)nc(NCCN(C)C)c2c1C` meets or exceeds -20%.
Reply: F

Ask: Please indicate if the recorded hERG current change (%, negative = inhibition) at 1uM for CC(=O)Oc1cc2c(cc1Cl)C1(CC(c3ccccc3Cl)O2)CC(C)(C)NC(=S)N1 (stereo not shown) meets or exceeds -20%.
Reply: T

Ask: Please indicate if the recorded hERG current change (%, negative = inhibition) at 1uM for `CCOC(=O)c1sc2nc(C)nc(NCc3ccc(F)cc3)c2c1C` meets or exceeds -20%.
Reply: T

Ask: Please indicate if the recorded hERG current change (%, negative = inhibition) at 1uM for COCCN1C(=O)C(=O)/C(=C(/O)c2ccc(S(=O)(=O)N3CCCCC3)cc2)C1c1ccc(OC)cc1 (stereo not shown) meets or exceeds -20%.
Reply: T

Ask: Please indicate if the recorded hERG current change (%, negative = inhibition) at 1uM for COc1ccc(NC(=O)C2CCCN(S(=O)(=O)c3ccc(Cl)cc3)C2)cc1OC (stereo not shown) meets or exceeds -20%.
Reply: T

Ask: Please indicate if the recorded hERG current change (%, negative = inhibition) at 1uM for `COc1ccc(CN2CCN(c3ccccn3)CC2)c(OC)c1C.O=C(O)C(=O)O` meets or exceeds -20%.
Reply: T

Ask: Please indicate if the recorded hERG current change (%, negative = inhibition) at 1uM for `O=C(COC(=O)c1ccc[nH]c1=O)Nc1ccc2c(c1)OC(F)(F)O2` meets or exceeds -20%.
Reply: T

Ask: Please indicate if the recorded hERG current change (%, negative = inhibition) at 1uM for `CSc1ccc(NC(=O)NCCCN2CCN(c3ccccc3F)CC2)cc1` meets or exceeds -20%.
Reply: T

Ask: Please indicate if the recorded hERG current change (%, negative = inhibition) at 1uM for N=c1c(C(=O)NCC2CCCO2)cc2c(=O)n3ccccc3nc2n1Cc1ccco1 (stereo not shown) meets or exceeds -20%.
Reply: F

Ask: Please indicate if the recorded hERG current change (%, negative = inhibition) at 1uM for `CCOC(=O)c1sc2nc(C)nc(NCc3ccc(Cl)cc3)c2c1C` meets or exceeds -20%.
Reply: F

Ask: Please indicate if the recorded hERG current change (%, negative = inhibition) at 1uM for `CCCCNC(=S)Nc1ccc2nc3n(c(=O)c2c1)CCCCC3` meets or exceeds -20%.
Reply: F

Ask: Please indicate if the recorded hERG current change (%, negative = inhibition) at 1uM for `COc1ccc(CN2CCN(c3ccccn3)CC2)c(OC)c1` meets or exceeds -20%.
Reply: F

Ask: Please indicate if the recorded hERG current change (%, negative = inhibition) at 1uM for O=C(O)CC1SC(=O)N(CC(=O)c2ccccc2)C1=O (stereo not shown) meets or exceeds -20%.
Reply: T

Ask: Please indicate if the recorded hERG current change (%, negative = inhibition) at 1uM for `O=S(=O)(c1cccs1)N1CN(C2CCCCC2)c2nc3ccccc3nc21` meets or exceeds -20%.
Reply: T

Ask: Please indicate if the recorded hERG current change (%, negative = inhibition) at 1uM for `O=C(NCc1ccccc1)c1onc(CSc2ccc(F)cc2)c1C(=O)NCc1ccccc1` meets or exceeds -20%.
Reply: T

Ask: Please indicate if the recorded hERG current change (%, negative = inhibition) at 1uM for `C=CCOc1ccccc1CN1CCC(Cc2ccccc2)CC1` meets or exceeds -20%.
Reply: F

The values you see were collected from paper PMC4336329.
